assay: Retardation factor of the compound using n-BuOH-pyridine-water at ratio of 65:35:35 as solvent system by thin layer chromatography; assay type: physicochemical; conditions: buffer
Non-standard residues stand in square brackets, D forms with d. Residues, ends and D or L forms follow the SMILES beside them. Sar = CNCC(=O)O
ASSAY_READOUT: Rf

Examples with answers:
compound=CC[C@H](C)[C@H](NC(=O)[C@H](Cc1ccc(O)cc1)NC(=O)[C@@H](NC(=O)[C@H](CCCNC(=N)N)NC(=O)CNC)C(C)C)C(=O)N[C@@H](Cc1cnc[nH]1)C(=O)N1CCC[C@H]1C(=O)NC(C)(C)C(=O)O reported=0.26
compound="CC[C@H](C)[C@H](NC(=O)[C@H](Cc1ccc(O)cc1)NC(=O)[C@@H](NC(=O)CN(C)C(=O)CNC)C(C)C)C(=O)N[C@@H](Cc1c[nH]cn1)C(=O)N1CCC[C@H]1C(=O)N[C@H](C(=O)O)[C@@H](C)O (H-[Sar][Sar]VYIHPT-OH)" reported=0.43
compound="CC[C@H](C)[C@H](NC(=O)[C@@H]1CCCN1C(=O)[C@H](Cc1c[nH]cn1)NC(=O)[C@@H](NC(=O)[C@H](Cc1ccc(O)cc1)NC(=O)[C@@H](NC(=O)[C@H](CCCN=C(N)N)NC(=O)CNC)C(C)C)[C@@H](C)OC)C(=O)O (H-[Sar]RVYT(Me)HPI-OH)" reported=0.25

a = CC[C@H](C)[C@H](NC(=O)[C@H](Cc1ccc(O)cc1)NC(=O)[C@@H](NC(=O)[C@H](CCCNC(=N)N)NC(=O)C(C)(C)N)C(C)C)C(=O)N[C@@H](Cc1cnc[nH]1)C(=O)N1CCC[C@H]1C(=O)NC(C)(C)C(=O)O
b = CNCC(=O)N[C@@H](CCCNC(=N)N)C(=O)N[C@H](C(=O)N[C@@H](Cc1ccc(O)cc1)C(=O)N[C@H](C(=O)N[C@@H](Cc1cnc[nH]1)C(=O)N1CCC[C@H]1C(=O)N[C@H](C(=O)O)[C@@H](C)OC)[C@@H](C)OC)C(C)C
Prompt: Which record would sort first by descending Rf, a or b ? State your choice using its label.
Completion: a
(a: 0.41, b: 0.18)

###

system: Rattus norvegicus; assay: In vivo agonist activity at angiotensin 2 receptor in ganglion-blocked vagotomized rat assessed as rise in blood pressure at 250 ng/kg/min compound infused for 3 mins; assay type: functional
Non-standard residues stand in square brackets, D forms with d. Residues, ends and D or L forms follow the SMILES beside them. Sar = CNCC(=O)O
ASSAY_READOUT: Activity (mmHg)
Please respond with the number in mmHg and leave the unit unwritten.

Some solved entries appear below for comparison.
compound=CC[C@H](C)[C@H](NC(=O)[C@@H]1CCCN1C(=O)[C@H](Cc1c[nH]cn1)NC(=O)[C@@H](NC(=O)[C@H](Cc1ccc(O)cc1)NC(=O)[C@@H](NC(=O)[C@H](CCCN=C(N)N)NC(=O)CNC)C(C)C)[C@@H](C)CC)C(=O)O target_desc="Rattus norvegicus" assay_readout=Activity units_symbol=mmHg reported=17.81
compound=CC[C@H](C)[C@H](NC(=O)[C@H](Cc1ccc(O)cc1)NC(=O)[C@@H](NC(=O)[C@H](CCCN=C(N)N)NC(=O)CNC)C(C)C)C(=O)N[C@@H](Cc1c[nH]cn1)C(=O)N1CCC[C@H]1C(=O)N[C@@H](C)C(=O)O target_desc="Rattus norvegicus" assay_readout=Activity units_symbol=mmHg reported=15.11
compound="CC[C@H](C)[C@H](NC(=O)[C@H](Cc1ccc(O)cc1)NC(=O)[C@@H](NC(=O)[C@H](CCCN=C(N)N)NC(=O)CNC)C(C)C)C(=O)N[C@@H](Cc1c[nH]cn1)C(=O)N1CCC[C@H]1C(=O)N[C@H](C(=O)O)[C@@H](C)O (H-[Sar]RVYIHPT-OH)" target_desc="Rattus norvegicus" assay_readout=Activity units_symbol=mmHg reported=9.46
compound=CC[C@H](C)[C@H](NC(=O)[C@H](Cc1ccc(O)cc1)NC(=O)[C@@H](NC(=O)[C@H](CCCNC(=N)N)NC(=O)C(C)(C)N)C(C)C)C(=O)N[C@@H](Cc1cnc[nH]1)C(=O)N1CCC[C@H]1C(=O)NC(C)(C)C(=O)O target_desc="Rattus norvegicus" assay_readout=Activity units_symbol=mmHg reported=5.16
compound="CC[C@H](C)[C@H](NC(=O)[C@@H]1CCCN1C(=O)[C@H](Cc1c[nH]cn1)NC(=O)[C@@H](NC(=O)[C@H](Cc1ccc(O)cc1)NC(=O)[C@@H](NC(=O)[C@H](CCCN=C(N)N)NC(=O)CNC)C(C)C)[C@@H](C)OC)C(=O)O (H-[Sar]RVYT(Me)HPI-OH)" target_desc="Rattus norvegicus" assay_readout=Activity units_symbol=mmHg reported=19

Consider the record given below.
Activity recorded for this compound, CC[C@H](C)[C@H](NC(=O)[C@H](Cc1ccc(O)cc1)NC(=O)[C@@H](NC(=O)[C@H](CCCNC(=N)N)NC(=O)CNC)C(C)C)C(=O)N[C@@H](Cc1cnc[nH]1)C(=O)N1CCC[C@H]1C(=O)NC(C)(C)C(=O)O , is 11
